// values below are reported SPOT peptide array binding signal intensity
target-or-system: AgHof1
assay-summary: SPOT peptide array binding signal intensity (averaged, normalized) (arbitrary units (background-subtracted, floor 0; scale differs between SH3 domains)); higher = stronger binding of the SH3 domain to the peptide
experimental-readout: SPOT peptide array binding signal intensity

1. KFIPSRPAPKPPSSA	26.2
2. NNNKMRPHLPPLSSG	291
3. HVRRSILALPLGVLL	22.8
4. LLRRTIPKRPFYHVL	11.5

Data provenance is the supplement of paper PMC4466140.
